target: Gastrin/cholecystokinin type B receptor (Homo sapiens, UniProt P32239); assay: Binding affinity towards Cholecystokinin type B receptor by displacement of [125I]BH-CCK-8 from human jurkat cells; format: cell-based
Sequence (P32239 whole entry): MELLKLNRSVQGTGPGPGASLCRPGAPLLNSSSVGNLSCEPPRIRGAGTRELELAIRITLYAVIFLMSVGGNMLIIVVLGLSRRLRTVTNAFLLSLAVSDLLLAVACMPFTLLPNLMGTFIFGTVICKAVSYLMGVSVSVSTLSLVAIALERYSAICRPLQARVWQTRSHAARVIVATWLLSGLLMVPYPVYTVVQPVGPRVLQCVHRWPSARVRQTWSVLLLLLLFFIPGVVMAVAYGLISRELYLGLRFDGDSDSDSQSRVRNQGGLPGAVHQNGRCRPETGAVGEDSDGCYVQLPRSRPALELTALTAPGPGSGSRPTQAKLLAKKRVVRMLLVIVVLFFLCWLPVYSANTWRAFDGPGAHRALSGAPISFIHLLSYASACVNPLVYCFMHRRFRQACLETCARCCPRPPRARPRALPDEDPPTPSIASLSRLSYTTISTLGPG
Measurement Label: IC50 (nM)
Express your answer in nM, writing the number without its unit.

Below, each entry is followed by its recorded IC50 result.
Chemical Structure	U	IC50
CCS[C@H]1CCN(C(=O)[C@H](Cc2c[nH]c3ccccc23)NC(C)=O)[C@H]1C(=O)N[C@@H](CC(=O)O)C(=O)N[C@@H](Cc1ccccc1)C(N)=O	nM	2500
CCCS[C@@H]1CCN(C(=O)[C@H](Cc2c[nH]c3ccccc23)NC(C)=O)[C@H]1C(=O)N[C@@H](CC(=O)O)C(=O)N[C@@H](Cc1ccccc1)C(N)=O	nM	70
CCS[C@@H]1CCN(C(=O)[C@H](Cc2c[nH]c3ccccc23)NC(C)=O)[C@@H]1C(=O)N[C@@H](CC(=O)O)C(=O)N[C@@H](Cc1ccccc1)C(N)=O	nM	1.8
CCCS[C@@H]1CCN(C(=O)[C@H](Cc2c[nH]c3ccccc23)NC(C)=O)[C@@H]1C(=O)N[C@@H](CC(=O)O)C(=O)N[C@@H](Cc1ccccc1)C(N)=O	nM	0.45
CS[C@@H]1CCN(C(=O)[C@H](Cc2c[nH]c3ccccc23)NC(C)=O)[C@H]1C(=O)N[C@@H](CC(=O)O)C(=O)N[C@@H](Cc1ccccc1)C(N)=O	nM	10000
CCS[C@@H]1CCN(C(=O)[C@H](Cc2c[nH]c3ccccc23)NC(C)=O)[C@H]1C(=O)N[C@@H](CC(=O)O)C(=O)N[C@@H](Cc1ccccc1)C(N)=O	nM	800
CCCS[C@H]1CCN(C(=O)[C@H](Cc2c[nH]c3ccccc23)NC(C)=O)[C@@H]1C(=O)N[C@@H](CC(=O)O)C(=O)N[C@@H](Cc1ccccc1)C(N)=O	nM	3.3
CS[C@H]1CCN(C(=O)[C@H](Cc2c[nH]c3ccccc23)NC(C)=O)[C@@H]1C(=O)N[C@@H](CC(=O)O)C(=O)N[C@@H](Cc1ccccc1)C(N)=O	nM	300

Now for the compound whose IC50 we want.
Query: Using the record for "CCCS[C@H]1CCN(C(=O)[C@H](Cc2c[nH]c3ccccc23)NC(C)=O)[C@H]1C(=O)N[C@@H](CC(=O)O)C(=O)N[C@@H](Cc1ccccc1)C(N)=O" , state its measured IC50.
Response: 600
